MEASUREMENT TARGET: Grb2 SH2 (UniProt P62993)
TEST NAME: SH2 binding enrichment of the phosphorylated peptide, bacterial display (enrichment ratio); higher = better substrate or ligand; peptides without Tyr show the background;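 also: peptide library displayed on the E. coli surface as eCPX fusions, selected cells deep-sequenced, score is each peptide's frequency after selection divided by its frequency in the input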
TEST READOUT: SH2 binding enrichment

Here are 5 sequences together with their reported answers.
>>> number("GTAPSYGNPSS [CD19_Y378]")
0.907
>>> number("VHLYAYDWISI [BEST1_Y227_G222V]")
1.48
>>> number("LFIDSYEKDVA [PGM1_Y521_YF]")
0.835
>>> number("ASKEPYFVRCI [MYO1D_Y585_YF]")
0.904
>>> number("QLATEYVFSDF [PANX1_Y10]")
0.895

[a] IEENGYNTFAS [FGF10_Y161_YF]
[b] NKEPRYQEEPP [TJP2_Y479_D482E]
Input pair: a , b . Output: entry with lower SH2 binding enrichment. Please indicate the selected item by its label. a
(a: 0.749, b: 1.07)

Data credit: the supplement of paper PMC10065799
